METHOD DESCRIPTION: StAR promoter reporter inhibitors, counter-screen for LRH-1 inverse agonist project, cell-based, luminescence, high throughput (AID 651611)
COND: StAR promoter luciferase reporter counterscreen, at 3.6 µM, stronger effect = higher value
Would you mind labelling by inhibition? At or over 60% is class 1, under is class 0.

Would you please look over these solved cases?
{"COMPOUND": "C=CCn1c(O)c(C(C)=NCc2cc(OC)cc(OC)c2)c(=O)[nH]c1=O", "ANSWER LABEL": "class 0"}
{"COMPOUND": "CC1=CC2OC3CC4OC(=O)C=CC=CC(=O)OCCC(C)C(O)C(=O)OCC2(CC1)C4(C)C31CO1 (centres undefined)", "ANSWER LABEL": "class 1"}
{"COMPOUND": "N#Cc1cn(C2OC(CO)C(O)C2O)c2ncnc(N)c12 (centres undefined)", "ANSWER LABEL": "class 1"}
{"COMPOUND": "N#CCCn1cc(C(=O)Nc2ccccc2Cl)c(-c2ccc([N+](=O)[O-])cc2)n1", "ANSWER LABEL": "class 0"}
{"COMPOUND": "COc1ccc(C[C@H]2NC[C@H](O)[C@H]2OC(C)=O)cc1", "ANSWER LABEL": "class 1"}
{"COMPOUND": "COC1/C=C/C=C(\\C)Cc2cc(O)c(Cl)c(c2)N(C)C(=O)CC(OC(=O)C(C)C)C2(C)OC2C(C)C2CC1(O)NC(=O)O2 (centres undefined)", "ANSWER LABEL": "class 1"}

Query: Could you tell me if the measured inhibition of `CC(=NCc1ccc(F)cc1)c1c(O)n(C)c(=O)n(C)c1=O` reaches 60% or more?
Reply: class 0

Query: Evaluate `N#Cc1ccc2nc(-c3ccc(CN4CCC(n5c(=O)[nH]c6ccccc65)CC4)cc3)c(-c3ccccc3)nc2c1` : inhibition at minimum 60%?
Reply: class 0

Query: Is inhibition for `c1ccc(-c2cc(-c3ccccc3)[n+](-c3ccccc3)c(-c3ccccc3)c2)cc1` at or above 60%?
Reply: class 1
